Recorded values, source PubChem BioAssay (NCI).

System: HOP-62 NSCLC
Assay: NCI-60 one-dose screen, 48 h (100 = growth as untreated, 0 = no growth, -100 = all killed)
Conditions: 10 µM unless noted
Compounds without any hit were thinned out: in the full panel of roughly 83,000, 20% have a hit.
growth reference
Respond numerically; units are % and should not be typed.

Enquiry: Need growth, item Cc1ccc2c(c1)Nc1ccc(C)cc1C2(C)C
Return: 78.9

Enquiry: Note, next up: COc1ccccc1NC(=O)COc1ccc(/C=C2/Oc3cc4occc4c(OC)c3C2=O)cc1OC
Return: 101

###

System: UO-31 renal
Experiment: NCI-60 one-dose screen, 48 h (100 = growth as untreated, 0 = no growth, -100 = all killed)
Conditions: 10 µM unless noted
Compounds without any hit were thinned out: in the full panel of roughly 83,000, 20% have a hit.
growth reference
Respond numerically; units are % and should not be typed.

// worked examples, growth included
1) CN1CCN(Cn2nc(-c3cc(Cl)cc(Cl)c3Cl)n(/N=C/c3ccc(Cl)cc3)c2=S)CC1 = 88
2) Cc1cc(C)c(O)c(C(=O)CC(Br)C(=O)O)c1 (stereo not given) = 77.7
3) c1nc(SC2=NCCN2)c2[nH]cnc2n1 = 40.6

Enquiry: Missing value: growth, UO-31 renal, entry C#C[C@@]1(O)[C@@H](CO)O[C@@H](n2cc(C(F)(F)F)c3c(N)ncnc32)[C@@H]1O . Fill in?
Return: -35.4

Enquiry: Note, next up: COc1ccc(-c2nn(-c3ccc(NC(=O)Nc4ccc(Cl)c(Cl)c4)cc3)cc2-c2ccncc2)cc1Cl
Return: 16.9

Enquiry: Note, next up: CCOC(=O)C1CSC(C)(C(=O)OCC)N1 (stereo not given)
Return: 95.6

Enquiry: Note, next up: Cc1cn(C2CC(N=[N+]=[N-])C(COP(=O)(O)OP(=O)(O)OP(=O)(O)O)O2)c(=O)[nH]c1=O (stereo not given)
Return: 98.5

Enquiry: Note, next up: Cc1c(C(C)(C)C)cc(C(C)(C)C)c2c1CN(C)CO2
Return: 97

Enquiry: Note, next up: COc1ccc(-c2nnc(SCC(=O)Nc3ccc(C(=O)/C=C/c4ccccc4)cc3)o2)cc1OC
Return: 83.9

Enquiry: Note, next up: CN(C)c1ccc2cc(-c3nc4ccccc4s3)c(N)nc2c1
Return: 51.8

###

Tested on: EKVX NSCLC
Assay: NCI-60 one-dose screen, 48 h (100 = growth as untreated, 0 = no growth, -100 = all killed)
Settings: 10 µM unless noted
This is part of a sample that, as a whole, favours compounds with a hit. Of some 83,000 tested, about 20% had one in any assay.
QUANTITY: growth (%)
Respond numerically; units are % and should not be typed.

// worked examples, growth included
1. Nc1nc(Cl)c2c(C(F)(F)F)cn(CC3CCNCC3)c2n1 = 88.8
2. COc1ccc(-c2nnc(SCC(=O)Nc3ccc(C(=O)/C=C/c4ccc(OC)c(OC)c4)cc3)o2)cc1 = 90
3. CC(C)CNCC(=O)Nc1ccc(Cc2ccc(NC(=O)CNCC(C)C)cc2)cc1 = 67.9
4. Cc1cn(C2CC(F)C(CO)O2)c(=O)[nH]c1=O (stereo not given) = 89.1
5. Cc1nc(N)nc(SCc2ccccc2)c1Br = 85.7
6. Cc1c(F)cccc1NC(=O)c1sc2nc3c(cc2c1N)CCCCC3 = 64.7

Enquiry: Missing value: growth, EKVX NSCLC, entry CCCC(=O)Oc1ccc(/C(=C(\C)c2ccc(Cl)cc2)c2ccc(OCCN(CC)CC)cc2)cc1 . Fill in?
Return: 12

Enquiry: Note, next up: COc1cc2ncn3c(=O)c4c5c(sc4nc3c2cc1OC)CCCCC5
Return: 87.9

Enquiry: Note, next up: CC(C)(C)C(=O)Nc1nc2c(s1)CCc1ccn(S(=O)(=O)c3ccccc3)c1-2
Return: 87.7

Enquiry: Note, next up: Nc1ncc(-c2ccc3ncnc(Nc4ccc(F)c(Cl)c4)c3c2)cn1
Return: 40.8
